Counter-ions that a name gives are not always drawn.
pKi tested on P2X7 (Homo sapiens (Human), UniProt Q99572): recorded values
Sequence (Q99572 whole entry): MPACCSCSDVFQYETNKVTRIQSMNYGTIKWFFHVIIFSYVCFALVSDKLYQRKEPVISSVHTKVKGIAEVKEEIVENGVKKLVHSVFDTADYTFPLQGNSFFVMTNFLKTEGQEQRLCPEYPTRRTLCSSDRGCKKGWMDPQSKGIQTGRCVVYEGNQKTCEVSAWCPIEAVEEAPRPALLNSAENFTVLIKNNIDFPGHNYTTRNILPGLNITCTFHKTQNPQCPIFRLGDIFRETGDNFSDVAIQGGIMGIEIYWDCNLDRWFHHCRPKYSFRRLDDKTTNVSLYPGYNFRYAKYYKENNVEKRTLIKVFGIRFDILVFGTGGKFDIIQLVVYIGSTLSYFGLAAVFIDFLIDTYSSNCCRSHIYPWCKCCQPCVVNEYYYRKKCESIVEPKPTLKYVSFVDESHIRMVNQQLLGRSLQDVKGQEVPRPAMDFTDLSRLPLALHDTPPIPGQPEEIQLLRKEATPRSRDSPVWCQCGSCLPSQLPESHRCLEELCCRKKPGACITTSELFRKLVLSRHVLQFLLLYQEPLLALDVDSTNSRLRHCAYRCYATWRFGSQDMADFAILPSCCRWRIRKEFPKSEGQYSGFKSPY
Answers are plain numbers, as −log10 of the molar value.

Below, each entry is followed by its recorded pKi result.
{"Compound": "O=C(c1cccc(C(F)(F)F)c1Cl)N1CCc2c(-c3ccccn3)n[nH]c2C1 [Example 93, TFA salt]", "Study System": "P2X7 (Homo sapiens (Human), UniProt Q99572)", "pKi": 7.40}
{"Compound": "CCC1c2ncn(-c3cnccn3)c2C=CN1C(=O)c1cccc(C(F)(F)F)c1Cl (stereo not shown)", "Study System": "P2X7 (Homo sapiens (Human), UniProt Q99572)", "pKi": 6.90}
{"Compound": "O=C(c1cccc(C(F)(F)F)c1Cl)N1CCc2c(nnn2-c2ncc(F)cn2)C1", "Study System": "P2X7 (Homo sapiens (Human), UniProt Q99572)", "pKi": 7.50}

# input for lookup
stdin: Please indicate pKi recorded for Cc1cccc(-n2nnc3c2CCN(C(=O)c2cccc(C(F)(F)F)c2Cl)C3C)n1 (stereo not shown)
stdout: 7.50
